Listed below: self-splicing fitness (ln) values for each entry.
Test: self-splicing fitness, log relative to wild type (ln ratio); higher = more splicing; Tetrahymena group I intron in knt gene, E. coli kanamycin selection, DiMSum; sequences stand for … in CUCUCU…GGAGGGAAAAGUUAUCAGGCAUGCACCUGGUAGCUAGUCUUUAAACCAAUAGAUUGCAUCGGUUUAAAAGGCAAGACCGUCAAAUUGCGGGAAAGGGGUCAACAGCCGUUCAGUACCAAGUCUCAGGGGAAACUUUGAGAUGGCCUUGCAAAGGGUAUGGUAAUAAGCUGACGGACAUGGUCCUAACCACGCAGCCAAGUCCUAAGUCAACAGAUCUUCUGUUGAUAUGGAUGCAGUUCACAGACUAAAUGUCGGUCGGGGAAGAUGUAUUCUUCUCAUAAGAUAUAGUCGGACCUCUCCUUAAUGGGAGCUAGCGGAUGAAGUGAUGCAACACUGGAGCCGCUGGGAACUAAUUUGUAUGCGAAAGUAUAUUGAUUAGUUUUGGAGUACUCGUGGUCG;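 also: selection with 25 µg/mL kanamycin versus none on LB agar overnight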
Settings: 37 °C
Number, no unit, nothing else.

Example cases with answers are listed next.
GAUUAGCAAUAUUACGCUGG :: -1.68
CAAUAGCAAUAUUACGUGGA :: -2.92
UGCCAGCAAUAUUACGACCA :: 0.0668
GGAAAGCAAUAUUACGGAUU :: -0.946
AUCAAGCAAUAUUACGUAUC :: -2.76

Request: Give reported self-splicing fitness (ln) value for "GAAAAGCAAUAUUACGGACU"
Response: 0.272

Request: Give reported self-splicing fitness (ln) value for "ACUGAGCAAUAUUACGGACU"
Response: -0.672

Request: Give reported self-splicing fitness (ln) value for "CAAAAGCAAUAUUACGACAC"
Response: -1.01
